Where these numbers come from: patent US20170088632A1

target: human MASP-2 (human, UniProt O00187 16-686); assay: cell-based or functional assay
Sequence (O00187 16-686): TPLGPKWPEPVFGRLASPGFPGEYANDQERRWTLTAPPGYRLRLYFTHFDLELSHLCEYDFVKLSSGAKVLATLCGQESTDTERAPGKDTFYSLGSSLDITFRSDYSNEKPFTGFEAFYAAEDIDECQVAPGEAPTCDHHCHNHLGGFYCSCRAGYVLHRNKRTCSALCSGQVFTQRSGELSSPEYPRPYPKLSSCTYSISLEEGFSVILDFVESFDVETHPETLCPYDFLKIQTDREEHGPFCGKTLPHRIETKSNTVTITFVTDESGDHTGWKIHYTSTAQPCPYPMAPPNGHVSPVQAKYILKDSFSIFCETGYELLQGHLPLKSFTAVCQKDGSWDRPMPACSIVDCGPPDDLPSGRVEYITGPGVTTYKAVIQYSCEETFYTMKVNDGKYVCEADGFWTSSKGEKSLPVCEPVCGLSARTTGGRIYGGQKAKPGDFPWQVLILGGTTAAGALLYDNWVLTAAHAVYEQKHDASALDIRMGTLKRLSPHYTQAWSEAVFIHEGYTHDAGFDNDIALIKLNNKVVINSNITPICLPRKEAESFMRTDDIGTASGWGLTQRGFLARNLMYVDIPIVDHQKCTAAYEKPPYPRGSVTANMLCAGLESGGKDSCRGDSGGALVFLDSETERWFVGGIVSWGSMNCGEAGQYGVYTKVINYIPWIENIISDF
recorded metric: Inhibitory activity in Human Serum IC50 (C3b deposition, 0.5% human serum)

[[record]]
binder = "scFv mother clone 17N16 (scFv, also called 17N16mc; 17N16m) scFv: QVQLQQSGPGLVKPSQTLSLTCAISGDSVSSTSAAWNWIRQSPSRGLEWLGRTYYRSKWYNDYAVSVKSRITINPDTSKNQFSLQLNSVTPEDTAVYYCARDPFGVPFDIWGQGTMVTVSSKLSGSASAPKLEEGEFSEARVSYVLTQPPSVSVAPGQTARITCGGNNIGSKNVHWYQQKPGQAPVLVVYDDSDRPSGIPERFSGSNSGNTATLTVSRVEAGDEADYYCQVWDTTTDHVVFGGGTKLTVLAAAGSEQKLISEEDLNSHHHHHH"
result = "15.4 nM"

